Biological target: T1, full-length untagged human GPNMB expressed on cells (human, UniProt Q14956 23-572)
T1 sequence: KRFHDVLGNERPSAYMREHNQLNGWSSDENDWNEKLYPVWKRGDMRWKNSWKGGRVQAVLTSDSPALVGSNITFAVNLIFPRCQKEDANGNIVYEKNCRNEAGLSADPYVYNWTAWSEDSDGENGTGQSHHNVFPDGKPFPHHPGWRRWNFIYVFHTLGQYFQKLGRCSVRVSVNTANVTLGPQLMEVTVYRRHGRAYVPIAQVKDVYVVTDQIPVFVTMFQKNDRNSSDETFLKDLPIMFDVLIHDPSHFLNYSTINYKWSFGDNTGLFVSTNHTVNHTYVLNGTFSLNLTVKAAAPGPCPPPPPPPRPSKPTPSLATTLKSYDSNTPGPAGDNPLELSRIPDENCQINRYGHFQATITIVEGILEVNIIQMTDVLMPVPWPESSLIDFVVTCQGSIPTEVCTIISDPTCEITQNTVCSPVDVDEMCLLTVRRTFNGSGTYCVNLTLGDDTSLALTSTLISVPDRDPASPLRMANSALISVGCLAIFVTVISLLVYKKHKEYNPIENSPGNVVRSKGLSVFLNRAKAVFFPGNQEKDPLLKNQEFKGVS
Assay: cell-based or functional assay
reported.metric: Fold Increase CD40 (max response at 1 µg/ml) (fold)

binder	unit.annotation	assay.value
anti-GPNMB antibody GPN-92 (antibody, V domains shown, humanized GPN-08) VH: QVQLVQSGAEVKKPGASVKVSCKASGYTFTSYWMHWVRQAPGQGLEWMGEINPSDGRTNYAQKFQGRVTMTVDKSTSTVYMELSSLRSEDTAVYYCARSGGNYAWFAYWGQGTLVTVSS VL: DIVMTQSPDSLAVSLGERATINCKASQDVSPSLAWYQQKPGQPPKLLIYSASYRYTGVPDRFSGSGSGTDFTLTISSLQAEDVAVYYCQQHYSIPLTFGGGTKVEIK	fold	1.59
anti-GPNMB antibody GPN-97 (antibody, V domains shown) VH: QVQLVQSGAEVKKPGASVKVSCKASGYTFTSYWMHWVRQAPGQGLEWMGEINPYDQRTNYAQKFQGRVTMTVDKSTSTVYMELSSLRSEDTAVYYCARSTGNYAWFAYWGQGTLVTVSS VL: DIVMTQSPDSLAVSLGERATINCKTSQDVSPSLAWYQQKPGQPPKLLIYSGSYRYTGVPDRFSGSGSGTDFTLTISSLQAEDVAVYYCQQHYSIPLTFGGGTKVEIK	fold	1.73
anti-GPNMB antibody GPN-94 (antibody, V domains shown) VH: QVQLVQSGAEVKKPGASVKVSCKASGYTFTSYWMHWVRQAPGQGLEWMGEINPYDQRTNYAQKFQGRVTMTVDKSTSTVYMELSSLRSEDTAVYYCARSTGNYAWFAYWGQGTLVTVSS VL: DIVMTQSPDSLAVSLGERATINCKTSQDVSPSLAWYQQKPGQPPKLLIYSASKRYTGVPDRFSGSGSGTDFTLTISSLQAEDVAVYYCQQHYSIPLTFGGGTKVEIK	fold	1.72

Hello, the source for this data is patent US20250270343A1, in case you need it.
